Item-by-item account of EC50
Molecular target: STING (Homo sapiens, UniProt Q86WV6, G230A/H232R/R293Q/R71H)
Construct: host or cells: THP-1 and THP-1 Lucia ISG cells
Sequence (Q86WV6 whole entry R71H/G230A/H232R/R293Q): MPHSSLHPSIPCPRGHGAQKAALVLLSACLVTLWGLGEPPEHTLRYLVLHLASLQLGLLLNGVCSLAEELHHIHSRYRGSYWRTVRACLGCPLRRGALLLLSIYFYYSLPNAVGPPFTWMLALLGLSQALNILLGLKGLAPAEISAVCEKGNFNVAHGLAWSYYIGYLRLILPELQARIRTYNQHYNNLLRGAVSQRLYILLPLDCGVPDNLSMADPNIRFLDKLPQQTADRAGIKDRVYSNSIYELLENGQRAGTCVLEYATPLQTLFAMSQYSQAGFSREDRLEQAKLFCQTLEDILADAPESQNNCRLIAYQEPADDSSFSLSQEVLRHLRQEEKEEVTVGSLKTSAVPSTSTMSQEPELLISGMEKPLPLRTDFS
Assay: Phosphorylation of IRF3: THP-1 cell ELISA
Format: cell-based
Conditions: THP-1 cells, 3 hours incubation, phospho-IRF3 ELISA; read-out: THP-1 CELL P-IRF3 EC50
Method: Phosphorylation of IRF3: THP-1 Cell ELISA STING activation results in recruitment of TBK1 and phosphorylation of IRF3 transcription factor before induction of type I interferons. THP-1 cells (InvivoGen) were grown in RPMI media plus 2 mM L-glutamine, 10% fetal bovine serum, and 0.5% Pen-Strep. 10^4 cells were seeded in 96-well plates and incubated overnight 37° C., 5% CO2. […] The signal was measured using a Perkin-Elmer Envision microplate reader. […]

>>> endpoint_result("CCn1nc(CO)cc1-c1nc(-c2nc(C(N)=O)cc3c2cnn3C)n(C)n1")
"3.75 µM"
>>> endpoint_result("CCn1nc(C)cc1-c1n[nH]c(-c2cc(C(N)=O)cc3c2cnn3CCN2CCC(F)(F)CC2)n1")
"16.6 µM"
>>> endpoint_result("CCn1nc(C)c(O)c1-c1n[nH]c(-c2nc(C(N)=O)cc3c2cnn3CCN2CC(F)C2)n1")
"> 10 µM"
>>> endpoint_result("CCn1nc(C)cc1-c1nnc(-c2cc(C(N)=O)cc3c2cnn3C2CC3CNCC3C2)[nH]1 (stereo not drawn)")
"> 100 µM"
>>> endpoint_result("Cc1nn(CCCN)c(-c2n[nH]c(-c3nc(C(N)=O)cc4c3cnn4C)n2)c1O")
"> 11.1 µM"
>>> endpoint_result("CCn1nc(C)c(Cl)c1-c1nc(-c2nc(C(N)=O)cc3c2cnn3C)c(CN)s1")
"> 10 µM"
>>> endpoint_result("Cc1nn(CCC(=O)O)c(-c2n[nH]c(-c3cc(C(N)=O)cc4c3cnn4C)n2)c1Cl")
"> 100 µM"
>>> endpoint_result("CCn1nc(C)c(F)c1-c1n[nH]c(-c2cc(C(N)=O)cc3c2cnn3CCCN)n1")
"> 100 µM"

With those in mind, consider the next molecule.
Prompt: For CCn1nc(C)cc1-c1nnc(-c2cc(C(N)=O)cc3c2cnn3[C@H](C)CN2CCOCC2)[nH]1 , what is its reported EC50?
Response: > 100 µM
